FYI, the data here is from ChEMBL document CHEMBL3102815.

Below are Ki values measured for Serine/threonine-protein kinase pim-1 (Homo sapiens).
test readout: Ki (nM)

Some solved entries appear below for comparison.
>>> reading("NCCC(=O)N1CCN(c2ccncc2NC(=O)c2nccnc2N)CC1")
56
>>> reading("NCC1CCCN(c2ccncc2NC(=O)c2nccnc2N)C1 (racemic)")
11
>>> reading("Nc1cccnc1C(=O)Nc1cnccc1N1CCC[C@H](N)C1")
18

I. Nc1nccnc1C(=O)Nc1cnccc1N1CCCCC1
II. Nc1ccc(-c2ccccc2C(F)(F)F)nc1C(=O)Nc1cnccc1N1CCC[C@H](N)C1
Query: // pick larger Ki from pair: I vs II Pick one; state its label.
Reply: I
(I: 30 nM, II: 3 nM)

---

system: Serine/threonine-protein kinase pim-2 (Homo sapiens, UniProt Q9P1W9)
Sequence (Q9P1W9 whole entry): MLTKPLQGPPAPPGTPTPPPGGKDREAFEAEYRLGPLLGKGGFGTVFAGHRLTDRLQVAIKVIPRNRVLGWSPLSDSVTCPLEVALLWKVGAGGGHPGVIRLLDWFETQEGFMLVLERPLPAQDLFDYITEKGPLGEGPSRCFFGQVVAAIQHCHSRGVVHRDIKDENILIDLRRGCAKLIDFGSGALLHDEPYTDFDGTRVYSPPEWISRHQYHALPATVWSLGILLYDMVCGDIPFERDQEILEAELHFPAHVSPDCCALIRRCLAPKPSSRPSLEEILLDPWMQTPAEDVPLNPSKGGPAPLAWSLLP
procedure text: Inhibition of PIM2 (unknown origin) using NH2-AGAGRSRHSSYPAGT-OH as substrate by Kinase-Glo assay
test readout: Ki

Query: Give the measured Ki of `Nc1ccc(-c2ccccc2Cl)nc1C(=O)Nc1cnccc1N1CCC[C@H](N)C1` .
Reply: < 1 nM

---

system: Serine/threonine-protein kinase pim-3 (Homo sapiens)
procedure text: Inhibition of PIM3 (unknown origin) using Biotin-AGAGRSRHSSYPAGT-OH as substrate after 2 hrs by AlphaScreen assay
test readout: Ki (pM)
Write the value in pM as a bare number.

Query: Recorded Ki of `Nc1ccc(-c2c(F)cccc2F)nc1C(=O)Nc1cnccc1N1CCC[C@H](N)C1` , please.
Reply: 6

---

List of Ki tested on Serine/threonine-protein kinase pim-2 (Homo sapiens, UniProt Q9P1W9).
test readout: Ki (nM)

Below, 3 compounds whose answers are already recorded.
>>> reading("Nc1ccc(-c2ccccn2)nc1C(=O)Nc1cnccc1N1CCC[C@H](N)C1")
6
>>> reading("Nc1nccnc1C(=O)Nc1ccccc1N1CCCCC1")
7000
>>> reading("Nc1ccc(Oc2ccccc2)nc1C(=O)Nc1cnccc1N1CCC[C@H](N)C1")
122

P. Nc1ccc(-c2cccnc2)nc1C(=O)Nc1cnccc1N1CCC[C@H](N)C1
Q. NCCC(=O)N1CCN(c2ccncc2NC(=O)c2nccnc2N)CC1
Query: Please state the entry with greater Ki among P and Q . Give the chosen item's label as your response.
Reply: Q

---

system: Serine/threonine-protein kinase pim-3 (Homo sapiens)
procedure text: Inhibition of PIM3 (unknown origin)
test readout: Ki (µM)

a. Nc1nccc(-c2ccc(N)c(C(=O)Nc3cnccc3N3CCC[C@H](N)C3)n2)n1
b. Nc1cccc(C(=O)Nc2ccccc2N2CCCCC2)n1
Query: Recorded Ki values differ for a and b ; which one is higher? Kindly give the label for the entry you pick.
Reply: b
(b: 11 µM, a: 0.003 µM)

---

pKi: −log10 of the molar value.
Consider the following pKi values measured on Serine/threonine-protein kinase pim-2 (Homo sapiens, UniProt Q9P1W9).
test readout: pKi

P. CC(=O)Nc1nc(C(=O)Nc2ccncc2N2CCCCC2)cs1
Q. Nc1cccnc1C(=O)Nc1cnccc1N1CCC[C@H](N)C1
R. Nc1ccc(-c2ccncc2)nc1C(=O)Nc1cnccc1N1CCC[C@H](N)C1
S. Nc1nccnc1C(=O)Nc1cnccc1N1CCCCC1
Query: Sort the 4 molecules by pKi; largest first, smallest last. Write the labels in rank order as requested.
Reply: R, Q, S, P
(R: 8.22, Q: 6.96, S: 5.80, P: 5.20)

---

system: Serine/threonine-protein kinase pim-3 (Homo sapiens)
procedure text: Inhibition of PIM3 (unknown origin) using NH2-AGAGRSRHSSYPAGT-OH as substrate by Kinase-Glo assay
test readout: Ki

>>> reading("Nc1ccc(-c2ccccc2Cl)nc1C(=O)Nc1cnccc1N1CCC[C@H](N)C1")
"< 1 nM"

# evaluate next
Query: Given the compound `COc1ccccc1-c1ccc(N)c(C(=O)Nc2cnccc2N2CCC[C@H](N)C2)n1` , what is its reported Ki?
Reply: < 1 nM

---

system: Serine/threonine-protein kinase pim-3 (Homo sapiens, UniProt Q86V86)
procedure text: Inhibition of PIM3 (unknown origin)
pKi: −log10 of the molar value.
test readout: pKi

Below are worked cases with known answers.
>>> reading("CC(=O)Nc1nc(C(=O)Nc2cnc(N)cc2N2CCCCC2)cs1")
5.77
>>> reading("Nc1ccc(-c2ccncc2)nc1C(=O)Nc1cnccc1N1CCC[C@H](N)C1")
8.30
>>> reading("Nc1nccnc1C(=O)Nc1cnccc1N1CCCCC1")
7.05
>>> reading("Nc1ccc(-c2cccnc2)nc1C(=O)Nc1cnccc1N1CCC[C@H](N)C1")
8.40
>>> reading("Nc1ccc(Oc2ccccc2)nc1C(=O)Nc1cnccc1N1CCC[C@H](N)C1")
7.82
>>> reading("Nc1cccnc1C(=O)Nc1ccccc1N1CCCCC1")
4.92

A. Nc1nccnc1C(=O)Nc1cnccc1N1CCNCC1
B. Nc1nccnc1C(=O)Nc1cnccc1N1CCC[C@H](N)C1
Query: Select one. Lower pKi: A or B Which one? Tell me its label.
Reply: A

P. NCCC(=O)N1CCN(c2ccncc2NC(=O)c2nccnc2N)CC1
Q. CN1CCC(CNc2ccc3ncc(-c4cccc(OC(F)(F)F)c4)n3n2)CC1
R. Nc1ccc(-c2ccccn2)nc1C(=O)Nc1cnccc1N1CCC[C@H](N)C1
S. NCC(=O)N1CCN(c2ccncc2NC(=O)c2nccnc2N)CC1
T. Nc1nccnc1C(=O)Nc1ccccc1N1CCCCC1
Query: List from greatest to least pKi. List the labels in the requested order.
Reply: R, Q, P, S, T

a. CC(=O)Nc1nc(C(=O)Nc2ccncc2N2CCCCC2)cs1
b. CC(=O)Nc1nc(C(=O)Nc2ccccc2N2CCCCC2)cs1
c. Nc1cccnc1C(=O)Nc1cnccc1N1CCC[C@H](N)C1
d. Nc1ccc(-c2ccccc2C(F)(F)F)nc1C(=O)Nc1cnccc1N1CCC[C@H](N)C1
e. Nc1ccc(-c2c(F)cccc2F)nc1C(=O)Nc1cnccc1N1CC[C@@H](O)[C@H](N)C1
Query: Sort entries by pKi from minimum to maximum value. Your reply should list the labels following the order given in the request.
Reply: b, a, c, d, e

1. CC(=O)Nc1nc(C(=O)Nc2cnccc2N2CCCCC2)cs1
2. NCC1CCCN(c2ccncc2NC(=O)c2nccnc2N)C1 (racemic)
Query: Two entries are listed, 1 and 2 . Which one carries the higher pKi? Field: selected label. Fill in the label of the entry you choose.
Reply: 2

---

Consider the following Ki values measured on Serine/threonine-protein kinase pim-1 (Homo sapiens, UniProt P11309).
Sequence (P11309 whole entry): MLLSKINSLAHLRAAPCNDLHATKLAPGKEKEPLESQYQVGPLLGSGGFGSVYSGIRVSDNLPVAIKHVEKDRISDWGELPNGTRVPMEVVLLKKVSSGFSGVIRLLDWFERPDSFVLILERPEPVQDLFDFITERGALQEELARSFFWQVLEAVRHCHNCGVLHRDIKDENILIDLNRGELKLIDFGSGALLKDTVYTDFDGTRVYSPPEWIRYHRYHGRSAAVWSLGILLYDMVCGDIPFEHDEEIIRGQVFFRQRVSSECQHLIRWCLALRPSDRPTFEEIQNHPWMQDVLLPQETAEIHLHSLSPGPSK
test readout: Ki (nM)

Here's what some known entries look like.
>>> reading("CC(=O)Nc1nc(C(=O)Nc2cnccc2N2CCCCC2)cs1")
61
>>> reading("CC(=O)Nc1nc(C(=O)Nc2cnc(N)cc2N2CCCCC2)cs1")
1000

1. NCC(=O)N1CCN(c2ccncc2NC(=O)c2nccnc2N)CC1
2. CC(=O)Nc1nc(C(=O)Nc2ccncc2N2CCCCC2)cs1
Query: Which is greater in Ki, the first item 1 or the second item 2 ? To answer, give the label that identifies your chosen option.
Reply: 1

1. Nc1cccc(C(=O)Nc2ccccc2N2CCCCC2)n1
2. Nc1nccnc1C(=O)Nc1ccccc1N1CCCCC1
Query: Please let me know which one, 1 or 2 , has a lower measured Ki value. Your answer should be the label of the entry you select.
Reply: 2

a. O=C(Nc1ccccc1N1CCCCC1)c1ncccc1O
b. Nc1cccnc1C(=O)Nc1ccccc1N1CCCCC1
c. Nc1nccnc1C(=O)Nc1cnccc1N1CCNCC1
d. Nc1ccc(Oc2ccccc2)nc1C(=O)Nc1cnccc1N1CCC[C@H](N)C1
Query: List from greatest to least Ki. The labels, placed in the requested order, form the answer.
Reply: a, b, c, d

---

These records show Ki for Serine/threonine-protein kinase pim-2 (Homo sapiens).

Solved entries:
>>> reading("CC(=O)Nc1nc(C(=O)Nc2cnccc2N2CCCCC2)cs1")
"> 12500 nM"
>>> reading("O=C(Nc1ccccc1N1CCCCC1)c1ncc[nH]1")
"> 12500 nM"
>>> reading("CC(=O)Nc1nc(C(=O)Nc2cnc(N)nc2N2CCCCC2)cs1")
"> 12500 nM"

From here, focus on the item given below.
Query: // map NCC1CCCN(c2ccncc2NC(=O)c2nccnc2N)C1 (racemic) to recorded Ki (system: Serine/threonine-protein kinase pim-2 (Homo sapiens))
Reply: 700 nM

---

system: Serine/threonine-protein kinase pim-3 (Homo sapiens, UniProt Q86V86)
procedure text: Inhibition of PIM3 (unknown origin)
pKi: −log10 of the molar value.
test readout: pKi

>>> reading("CC(=O)Nc1nc(C(=O)Nc2cncnc2N2CCCCC2)cs1")
"< 4.90"
>>> reading("CC(=O)Nc1nc(C(=O)Nc2cnc(N)nc2N2CCCCC2)cs1")
"< 4.90"

In the following, a different compound is considered.
Query: Can you look up the measured pKi of `O=C(Nc1ccccc1N1CCCCC1)c1ncccc1O` for me?
Reply: < 4.90

---

system: Serine/threonine-protein kinase pim-1 (Homo sapiens)
pKi: −log10 of the molar value.
test readout: pKi

a. Nc1nccc(-c2ccc(N)c(C(=O)Nc3cnccc3N3CCC[C@H](N)C3)n2)n1
b. Nc1ccc(-c2c(F)cccc2F)nc1C(=O)Nc1cnccc1N1CC[C@@H](O)[C@H](N)C1
Query: Could you tell me which of these two has the smaller pKi figure? First: a Second: b // output: label of the selected item
Reply: a
(a: 9.00, b: 11.70)
